Reference source for all entries: patent US9815851B2

# experimental.target: RORγ (UniProt P51449)
# procedure.details: RORγ Gal4 Reporter Gene Assay in 293T cells (firefly and renilla luciferase)
# Format: cell-based, human
# condition.parameters: third value of the cell; Gal4 reporter gene assay in 293T cells, renilla normalised luciferase
property.label: pIC50 (REN)
I only need the number, thanks.

>>> recorded_result("Cc1c(C(=O)NCC(F)(F)F)cc(-c2cc(C(C)(C)C)c(O)c(C(C)(C)C)c2)n1CC1CCCCC1 [1/48]")
6.4
>>> recorded_result("Cc1c(C(=O)NC2CCOCC2)cc(-c2ccc(S(=O)(=O)NC(C)(C)CCO)c(C(F)(F)F)c2)n1CC1CCCCC1 [17/108]")
7.1
>>> recorded_result("Cc1c(C(=O)NCCN2CCOCC2)cc(-c2ccc(S(=O)(=O)NC(C)(C)C)c(C(C)(C)C)c2)n1CC1CCCCC1 [1/11]")
6.1
>>> recorded_result("Cc1c(C(=O)NCC2CC2)cc(-c2cc(C(C)(C)C)c3c(c2)C2(CCO3)CC2)n1CC1CCCCC1 [1/102]")
6.4

Input: Please report the measured pIC50 (REN) for Cc1c(C(=O)NC2CCOCC2)cc(-c2ccc(S(=O)(=O)N[C@@H](C)C(F)(F)F)c(C(F)(F)F)c2)n1CC1CCCCC1 [17/141]
Output: 8.5

----------
# experimental.target: RORγ (UniProt P51449)
# procedure.details: RORγ Gal4 Reporter Gene Assay in 293T cells (firefly and renilla luciferase)
# Assay type: cell-based, human
# condition.parameters: second value of the cell; Gal4 reporter gene assay in 293T cells, firefly luciferase
Entries and their measured pIC50 (FF) follow.
I only need the number, thanks.

>>> recorded_result("Cc1c(C(=O)N[C@H]2C[C@H](C(=O)O)C2)cc(-c2cc(NCC(C)(C)C)nc(C(C)(C)C)c2)n1CC1CCCCC1 [17/196]")
7.0
>>> recorded_result("Cc1c(C(=O)NCC2(C(N)=O)CCOCC2)cc(-c2ccc(S(=O)(=O)NC(C)(C)C)c(C(F)(F)F)c2)n1CC1CCCCC1 [17/203]")
7.8
>>> recorded_result("Cc1c(C(=O)NCCC(C)(C)C(=O)O)cc(-c2ccc(S(=O)(=O)NC(C)(C)C)c3ccccc23)n1CC1CCCCC1 [17/241]")
7.7
>>> recorded_result("Cc1c(C(=O)N[C@H]2C[C@H](C(=O)O)C2)cc(-c2cc(C(C)(C)C)nc(C3(C)CC3)c2)n1CC1CCCCC1 [17/292]")
7.5
>>> recorded_result("Cc1c(C(=O)NC2CCOCC2)cc(-c2cc(C(=O)NC(C)C)cc(C(C)(C)O)c2)n1CC1CCCCC1 [17/323]")
5.6
>>> recorded_result("Cc1c(C(=O)NCC(C)(C)O)cc(-c2cc(C(=O)N(C)C(C)(C)C)cc(C3(C)CC3)c2)n1CC1CCCCC1 [1/110]")
7.3

Input: Please report the measured pIC50 (FF) for Cc1c(C(=O)NC2COC2)cc(-c2cc(C(C)(C)C)cc(C(C)(C)C)c2)n1S(=O)(=O)N1CCC(C)CC1 [7/1]
Output: 6.7

Input: Please report the measured pIC50 (FF) for Cc1c(C(=O)NC2CCOCC2)cc(-c2ccc(S(=O)(=O)NC(C)(C)C)c3sccc23)n1CC1CCCCC1 [17/183]
Output: 7.9

Input: Please report the measured pIC50 (FF) for Cc1c(C(=O)NCC(C)(C)C(=O)O)cc(-c2cc(C(=O)NC(C)(C)C)cc(C(C)(C)C)c2)n1CC1CCCCC1 [17/329]
Output: 6.8

----------
Entries and their measured pIC50 (REN) follow.
# experimental.target: RORγ (UniProt P51449)
# procedure.details: RORγ Gal4 Reporter Gene Assay in 293T cells (firefly and renilla luciferase)
# Format: cell-based, human
# condition.parameters: third value of the cell; Gal4 reporter gene assay in 293T cells, renilla normalised luciferase
I only need the number, thanks.

// worked examples, pIC50 (REN) included
>>> recorded_result("Cc1c(C(=O)N[C@H]2CCOC2)cc(-c2cc(C(C)(C)C)cc(C3(C)CC3)c2)n1CC1CCCCC1")
7.7
>>> recorded_result("Cc1c(C(=O)NCC2(O)CCOCC2)cc(-c2cc(C(C)(C)O)cc(C3(C)CC3)c2)n1CC1CCCCC1")
7.1

Continue with the next compound.
Input: Please report the measured pIC50 (REN) for Cc1c(C(=O)NC2CCOCC2)cc(-c2ccc(C(NC(C)(C)C)C(F)(F)F)c(C(F)(F)F)c2)n1CC1CCCCC1 (stereo not drawn)
Output: 6.2

----------
# experimental.target: RORγ (UniProt P51449)
# procedure.details: RORγ Gal4 Reporter Gene Assay in 293T cells (firefly and renilla luciferase)
# Assay type: cell-based, human
# condition.parameters: third value of the cell; Gal4 reporter gene assay in 293T cells, renilla normalised luciferase
Entries and their measured pIC50 (REN) follow.
I only need the number, thanks.

>>> recorded_result("Cc1c(C(=O)NC2CCOCC2)cc(-c2ccc(C(=O)NCC(F)(F)F)c(C(C)(C)C)c2)n1CC1CCCCC1")
6.4
>>> recorded_result("Cc1c(C(=O)NC2CCOCC2)cc(-c2ccc(S(=O)(=O)NC(C)(C)C)c(C(F)(F)F)c2)n1CC1CC(C)C1 (stereo not shown)")
7.4
>>> recorded_result("Cc1cc(C(C)(C)C)cc(-c2cc(C(=O)N[C@H]3C[C@H](C(=O)O)C3)c(C)n2CC2CCCCC2)c1OC(F)F")
6.5
>>> recorded_result("Cc1c(C(=O)NC2CCOCC2)cc(-c2ccc(S(=O)(=O)NCC3(C)COC3)c(C(F)(F)F)c2)n1CC1CCCCC1")
6.7
>>> recorded_result("Cc1c(C(=O)NCC(C)(C)c2noc(=O)[nH]2)cc(-c2cc(C(C)(C)O)cc(C3(C)CC3)c2)n1CC1CCCCC1")
7.6
>>> recorded_result("Cc1c(C(=O)NC[C@H](C)O)cc(-c2cc(C(C)(C)C)cc(C(C)(C)C)c2)n1CC1CCCCC1")
6.2
>>> recorded_result("COC(C)(C)c1cc(-c2cc(C(=O)NC3CCOCC3)c(C)n2CC2CCCCC2)cc(C(C)NC(C)C)c1 (stereo not shown)")
6.4
>>> recorded_result("Cc1c(C(=O)NC2CCOCC2)cc(-c2ccc(S(=O)(=O)NC(C)(C)C)c(C(F)(F)F)c2)n1C1CC12CCCC2 (stereo not shown)")
6.7

Input: Please report the measured pIC50 (REN) for `Cc1c(C(=O)NCCC(C)(C)C(=O)O)cc(-c2ccc(S(=O)(=O)NC(C)(C)C)c(C(F)(F)F)c2)n1CC1CCCCC1`
Output: 7.5

Input: Please report the measured pIC50 (REN) for `Cc1c(C(=O)NC2CCOCC2)cc(-c2ccc(S(=O)(=O)N[C@@H](C)C(F)(F)F)c(C(C)(C)C)c2)n1CC1CCCCC1`
Output: 8.3

----------
Entries and their measured log10 of IC50 follow.
# experimental.target: RORγ ligand binding domain (LBD) (Homo sapiens)
# Construct: made in house; host or cells: E. coli BL-21 (BL3), vector pDEST15
# Sequence (P51449 269-508 limits assumed): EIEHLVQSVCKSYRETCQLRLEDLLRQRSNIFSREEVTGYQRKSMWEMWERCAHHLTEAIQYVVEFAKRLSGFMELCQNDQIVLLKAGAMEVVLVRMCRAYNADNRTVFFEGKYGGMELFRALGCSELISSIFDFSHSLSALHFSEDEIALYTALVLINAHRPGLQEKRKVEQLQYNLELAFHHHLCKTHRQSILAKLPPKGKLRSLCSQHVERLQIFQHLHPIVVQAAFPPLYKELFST
# procedure.details: TR-FRET Activity Assay (ligand sensing, RORγ-LBD / coactivator peptide interaction, LANCE)
# Format: biochemical
# condition.parameters: first value of the cell FRET/FF/REN; TR-FRET activity assay; read-out: pIC50 (FRET) (converted)
# log10 transformed; quantity=IC50; unit=nM

// worked examples, log10 of IC50 included
>>> recorded_result("Cc1c(C(=O)NCC2COCCN2C)cc(-c2cc(C(C)(C)C)c3c(c2)C2(CCO3)CC2)n1CC1CCCCC1 (stereo not shown)")
3.10
>>> recorded_result("Cc1c(C(=O)NC2CN(C(=O)OC(C)(C)C)C2)cc(-c2cc(C(C)(C)C)cc(C(C)(C)C)c2)n1CC1CCCCC1")
3.50
>>> recorded_result("Cc1c(C(=O)NC2COC2)cc(-c2cc(C(=O)N3CCCCC3)c3ccccn23)n1CC1CCCCC1")
4.20
>>> recorded_result("Cc1c(C(=O)NCC2(C(=O)O)CC2)cc(-c2cc(C(C)(C)C)c3c(c2)C2(CCO3)CC2)n1CC1CCCCC1")
3.20
>>> recorded_result("Cc1c(C(=O)NCC(F)(F)F)cc(-c2cc(C(C)(C)C)c(O)c(C(C)(C)C)c2)n1CC1CCCCC1")
2.80

Input: Please report the measured log10 of IC50 for `Cc1c(-c2cc(C(=O)NC3CCOCC3)c(C)n2CC2CCCCC2)ccc(S(=O)(=O)NC(C)(C)C)c1C`
Output: 3.20

Input: Please report the measured log10 of IC50 for `Cc1c(S(=O)(=O)NC(C)(C)C)ccc(-c2cc(C(=O)NC3CCOCC3)c(C)n2CC2CCCCC2)c1C(F)(F)F`
Output: 2.80
